target: Beta-3 adrenergic receptor (Homo sapiens); assay: Effective concentration for stimulation of adenylyl cyclase activity in CHO-beta3 AR expressing cell membranes; type: functional
Sequence (P13945 whole entry): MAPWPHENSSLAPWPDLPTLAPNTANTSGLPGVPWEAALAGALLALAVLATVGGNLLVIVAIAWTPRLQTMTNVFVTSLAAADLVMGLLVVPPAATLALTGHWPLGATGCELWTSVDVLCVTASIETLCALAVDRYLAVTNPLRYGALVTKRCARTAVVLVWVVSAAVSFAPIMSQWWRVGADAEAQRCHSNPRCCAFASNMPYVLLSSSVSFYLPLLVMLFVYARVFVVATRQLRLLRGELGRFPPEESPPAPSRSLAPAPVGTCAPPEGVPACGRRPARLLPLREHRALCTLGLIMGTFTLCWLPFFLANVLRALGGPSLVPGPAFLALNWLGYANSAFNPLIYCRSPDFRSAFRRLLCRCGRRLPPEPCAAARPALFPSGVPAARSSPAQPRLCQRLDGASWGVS
Could you please report measured log10(EC50) for the items listed next?
The figures below represent log10 of EC50, where EC50 is stated in nM.

# annotated cases, reported log10(EC50) shown
| cpd_smiles | log10(EC50) |
| --- | --- |
| C[C@H](Cc1ccc(OCP(=O)(O)O)cc1)NC[C@H](O)c1cccc(Cl)c1 | 3.42 |
| COC(=O)COc1ccc(C[C@@H](C)NC[C@H](O)c2cccc(Cl)c2)cc1 | 2.62 |
| C[C@H](Cc1ccc(OCC(N)=O)cc1)NC[C@H](O)c1cccc(Cl)c1 | 3.21 |
| C[C@H](Cc1ccc(OCC(=O)NO)cc1)NC[C@H](O)c1cccc(Cl)c1 | 3.21 |

Please give log10(EC50), item by item, for the list that follows.
1. C[C@H](Cc1ccc(OCCO)cc1)NC[C@H](O)c1cccc(Cl)c1
2. C[C@H](Cc1ccc(OCS(=O)(=O)O)cc1)NC[C@H](O)c1cccc(Cl)c1
3. CC(C)OP(=O)(O)COc1ccc(C[C@@H](C)NC[C@H](O)c2cccc(Cl)c2)cc1

[2.88, 1.78, 2.79]

###

molecular target: Beta-3 adrenergic receptor (Homo sapiens, UniProt P13945); experiment: Intrinsic activity as maximal cyclase activity in CHO-beta3 AR cell membranes compared to (-)-isoproterenol; assay type: functional, cell-based
Sequence (P13945 whole entry, looked up): as the sequence (P13945 whole entry) above
Could you please report measured Activity for the items listed next?
Numbers only.

# annotated cases, reported Activity shown
| cpd_smiles | Activity |
| --- | --- |
| C[C@H](Cc1ccc(OCS(=O)(=O)O)cc1)NC[C@H](O)c1cccc(Cl)c1 | 0.57 |
| C[C@H](Cc1ccc(OCC(=O)O)cc1)NC[C@H](O)c1cccc(Cl)c1 | 0.67 |
| COC(=O)COc1ccc(C[C@@H](C)NC[C@H](O)c2cccc(Cl)c2)cc1 | 0.69 |

Please give Activity, item by item, for the list that follows.
1. C[C@H](Cc1ccc(OCC(=O)NO)cc1)NC[C@H](O)c1cccc(Cl)c1
2. CC(C)OP(=O)(O)COc1ccc(C[C@@H](C)NC[C@H](O)c2cccc(Cl)c2)cc1
3. C[C@H](Cc1ccc(OCP(=O)(O)O)cc1)NC[C@H](O)c1cccc(Cl)c1
4. C[C@H](Cc1ccc(OCCO)cc1)NC[C@H](O)c1cccc(Cl)c1

[0.66, 0.59, 0.53, 0.77]

Quick one: give measured Activity for C[C@H](Cc1ccc(OCC(N)=O)cc1)NC[C@H](O)c1cccc(Cl)c1 0.6

###

target: UniProt:P07550
Sequence (P07550 whole entry): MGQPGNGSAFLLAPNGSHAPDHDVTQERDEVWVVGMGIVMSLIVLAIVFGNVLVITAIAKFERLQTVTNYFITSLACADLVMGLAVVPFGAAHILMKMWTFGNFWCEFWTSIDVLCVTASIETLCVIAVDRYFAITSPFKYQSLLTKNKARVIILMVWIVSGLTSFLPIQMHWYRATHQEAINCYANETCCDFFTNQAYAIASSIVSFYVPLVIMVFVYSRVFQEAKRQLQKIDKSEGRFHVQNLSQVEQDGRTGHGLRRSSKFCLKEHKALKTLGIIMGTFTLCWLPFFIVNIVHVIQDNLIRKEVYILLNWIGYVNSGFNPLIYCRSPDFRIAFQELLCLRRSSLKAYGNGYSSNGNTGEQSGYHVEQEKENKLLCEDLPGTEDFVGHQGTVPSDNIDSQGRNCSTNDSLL
measurement_name: pKi
Answers are plain numbers, as −log10 of the molar value.

| cpd_smiles | measurement_name | assay_result |
| --- | --- | --- |
| C[C@H](Cc1ccc(OC(C(=O)O)C(=O)O)cc1)NC[C@H](O)c1cccc(Cl)c1 | pKi | 4.77 |
| C[C@H](Cc1ccc(OCC(=O)NO)cc1)NC[C@H](O)c1cccc(Cl)c1 | pKi | 6.95 |

Please give pKi, item by item, for the list that follows.
1. C[C@H](Cc1ccc(OCP(C)(=O)O)cc1)NC[C@H](O)c1cccc(Cl)c1
2. C[C@H](Cc1ccc(OCCO)cc1)NC[C@H](O)c1cccc(Cl)c1
3. C[C@H](Cc1ccc(OCP(=O)(O)O)cc1)NC[C@H](O)c1cccc(Cl)c1
4. C[C@H](Cc1ccc(OCS(=O)(=O)O)cc1)NC[C@H](O)c1cccc(Cl)c1

1: 4.13; 2: 6.59; 3: 4.40; 4: 5.65

Please give pKi, item by item, for the list that follows.
1. C[C@H](Cc1ccc(OCC(N)=O)cc1)NC[C@H](O)c1cccc(Cl)c1
2. COC(=O)COc1ccc(C[C@@H](C)NC[C@H](O)c2cccc(Cl)c2)cc1
3. CC(C)OP(=O)(O)COc1ccc(C[C@@H](C)NC[C@H](O)c2cccc(Cl)c2)cc1

1: 6.77; 2: 8.49; 3: 4.37
